# Target: UniProt O60885
# Assay overview: TR-FRET bromodomain binding assay, BRD4 second bromodomain
# Method: A time-resolved fluorescence resonance energy transfer (TR-FRET) assay was used to determine the affinities of compounds of the Examples listed in Table 1 for each bromodomain of BRD4. His-tagged first (BD1: amino acids K57-E168) and second (BD2: amino acids E352-E168) bromodomains of BRD4 were expressed and purified. […] After a one-hour equilibration at room temperature, TR-FRET ratios were determined using an Envision multilabel plate reader (Ex 340, Em 495/520). […]
Readout label: Ki (nM)

Consider the following illustrative entries.
Cc1[nH]c(-c2ccccc2Oc2ccccc2)c2cc(CO)[nH]c(=O)c12 [Example 18]; 31.6
Cc1[nH]c(-c2ccccc2Oc2ccccc2)c2cc(C(=O)NC3CCOCC3)[nH]c(=O)c12 [Example 38]; 29
Cc1[nH]c(-c2ccccc2Oc2ccccc2)c2cc(C(=O)N[C@@H]3CCN(C)C3)[nH]c(=O)c12 [Example 51]; 190
Cc1[nH]c(-c2cc(NS(C)(=O)=O)ccc2Oc2ccccc2)c2nc[nH]c(=O)c12 [Example 91]; 117

(1) CCOC(=O)c1cc2c(-c3cc(CS(C)(=O)=O)ccc3Oc3ccc(F)cc3F)[nH]c(C)c2c(=O)[nH]1 [Example 68]
(2) Cc1[nH]c(-c2cc(S(C)(=O)=O)ccc2Oc2ccc(F)cc2F)c2cc(C(=O)O)[nH]c(=O)c12 [Example 40]
(3) Cc1[nH]c(-c2ccccc2Oc2ccccc2)c2cc(C(=O)NC(C)(C)C#N)[nH]c(=O)c12 [Example 52]
(4) Cc1[nH]c(-c2ccccc2Oc2ccccc2)c2cc(C(=O)NCC3CCOC3)[nH]c(=O)c12 (centres unmarked) [Example 36]
**Q:** Order the entries by their reported Ki, beginning at the minimum. Record the ranking as a list of labels in the requested order.
**A:** 1, 4, 3, 2

###

# Target: BRD4 (BDII_E352-M457) (Homo sapiens)
# Assay overview: TR-FRET bromodomain binding assay, BRD4 second bromodomain
# Procedure: A time-resolved fluorescence resonance energy transfer (TR-FRET) assay was used to determine the affinities of compounds of the Examples listed in Table 1 for each bromodomain of BRD4. His-tagged first (BD1: amino acids K57-E168) and second (BD2: amino acids E352-E168) bromodomains of BRD4 were expressed and purified. […] After a one-hour equilibration at room temperature, TR-FRET ratios were determined using an Envision multilabel plate reader (Ex 340, Em 495/520). […]
Readout label: Ki (µM)

CNC(=O)c1cc2c(-c3cc(C(F)(F)F)ccc3Oc3ccc(F)cc3F)[nH]c(C)c2c(=O)[nH]1 [Example 34]; 0.16

(A) Cc1[nH]c(-c2ccccc2)c2c1C(=O)NCC2 [Example 100]
(B) Cc1[nH]c(-c2cc(NS(C)(=O)=O)ccc2Oc2ccccc2)c2c1C(=O)NCC2 [Example 95]
(C) Cc1[nH]c(-c2ccccc2Oc2ccccc2)c2cc(C(=O)NC3CCN(C)CC3)[nH]c(=O)c12 [Example 35]
**Q:** // ranking: key=Ki, reverse=True Lab note: record answer as labels in requested order.
**A:** A, C, B

(1) Cc1[nH]c(-c2cc(N)ccc2Oc2ccc(F)cc2F)c2c1C(=O)NC(C)C2 (stereo not shown) [Example 101]
(2) Cc1[nH]c(-c2ccccc2Oc2ccccc2)c2nc[nH]c(=O)c12 [Example 85]
**Q:** Hi there! Just curious which has the higher Ki between 1 and 2 . Let me know the label of the one you choose.
**A:** 2

(1) CCOC(=O)c1cc2c(-c3ccc(-c4cc(C)n[nH]4)cc3)[nH]c(C)c2c(=O)[nH]1 [Example 8]
(2) Cc1[nH]c(-c2ccccc2Oc2ccccc2)c2cc(-c3nc(Cn4cncn4)no3)[nH]c(=O)c12 [Example 64]
(3) CCCc1noc(-c2cc3c(-c4ccccc4Oc4ccccc4)[nH]c(C)c3c(=O)[nH]2)n1 [Example 47]
(4) CCCNC(=O)c1cc2c(-c3cc(N)ccc3Oc3ccc(F)cc3F)[nH]c(C)c2c(=O)[nH]1 [Example 43]
(5) CCOC(=O)c1cc2c(-c3cc(S(C)(=O)=O)ccc3Oc3ccc(F)cc3F)[nH]c(C)c2c(=O)[nH]1 [Example 39]
**Q:** Rank the items in ascending order with respect to Ki. When ranking, write the labels in the order the request describes.
**A:** 2, 4, 5, 1, 3
(2: 0.00711 µM, 4: 0.0254 µM, 5: 0.0518 µM, 1: 0.615 µM, 3: 2.52 µM)

(1) CCS(=O)(=O)Nc1ccc(Oc2ccccc2)c(-c2[nH]c(C)c3c(=O)[nH]ncc23)c1 [Example 75]
(2) Cc1[nH]c(-c2cc(N)ccc2Oc2ccccc2)c2cn[nH]c(=O)c12 [Example 74]
**Q:** Between the two listed entries 1 and 2 , which has its Ki at the higher number? Mark your answer with the label of the selected entry.
**A:** 2
(2: 0.0186 µM, 1: 0.00947 µM)

(P) CCOC(=O)c1cc2c(-c3cc(NS(=O)(=O)CC)ccc3Oc3ccc(F)cc3F)[nH]c(C)c2c(=O)[nH]1 [Example 10]
(Q) Cc1[nH]c(-c2ccccc2Oc2ccccc2)c2cc[nH]c(=O)c12 [Example 14]
(R) Cc1[nH]c(-c2ccccc2Oc2ccccc2)c2cc(C(=O)N3CCOCC3)[nH]c(=O)c12 [Example 15]
**Q:** Please list the entries, largest Ki first. Thanks in advance for listing the labels in the requested order.
**A:** R, Q, P

###

# Target: BRD4 (BDI_K57-E168) (Homo sapiens, UniProt O60885)
# Construct: BD1: amino acids K57-E168
# Assay overview: TR-FRET bromodomain binding assay, BRD4 first bromodomain
# Test context: His-tagged BD1, 100 nM Alexa647 probe; Ki calculated from IC50; dilution protocol A-G
Readout label: Ki (nM)

Cc1[nH]c(-c2ccccc2Oc2ccccc2)c2cc(C(=O)O)[nH]c(=O)c12; 82.6
CCOC(=O)c1cc2c(-c3ccccc3Oc3ccc(F)cc3F)[nH]c(C)c2c(=O)[nH]1; 24.8
Cc1[nH]c(-c2ccccc2Oc2ccccc2)c2cc(-c3nc(Cc4cccnc4)no3)[nH]c(=O)c12; 9.31
CCOC(=O)c1cc2c(-c3cc(NS(=O)(=O)CC)ccc3Oc3ccccc3)[nH]c(C)c2c(=O)[nH]1; 1.23
Cc1[nH]c(-c2cc(S(C)(=O)=O)ccc2F)c2c1C(=O)NCC2; 1620

(I) Cc1[nH]c(-c2cc(NS(C)(=O)=O)ccc2Oc2ccc(F)cc2F)c2c1C(=O)NCC2
(II) Cc1[nH]c(-c2cc(N)ccc2Oc2ccc(F)cc2F)c2cn[nH]c(=O)c12
**Q:** Field: lower recorded Ki (choose I or II ) Your choice should be expressed through its label.
**A:** II
(II: 3.31 nM, I: 14 nM)

(A) Cc1[nH]c(-c2ccccc2Oc2ccccc2)c2cc(C(=O)NC3CCN(C)CC3)[nH]c(=O)c12
(B) Cc1[nH]c(-c2ccccc2Oc2ccccc2)c2nc(C(=O)O)[nH]c(=O)c12
**Q:** Of A and B , which one carries the higher reported Ki? Pick one; state its label.
**A:** B

###

# Target: UniProtKB O60885
# Assay overview: TR-FRET bromodomain binding assay, BRD4 second bromodomain
pKi: −log10 of the molar value.
Readout label: pKi

These solved cases illustrate the format of a correct answer.
Cc1[nH]c(-c2cc(CN3CCN(C)CC3)ccc2Oc2ccc(F)cc2F)c2c1C(=O)NCC2 [Example 102]; 5.51
CCS(=O)(=O)Nc1ccc(Oc2ccccc2)c(-c2[nH]c(C)c3c(=O)[nH]c(C(=O)OC)cc23)c1 [Example 7]; 7.80
CO[C@H]1C[C@H](NC(=O)c2cc3c(-c4ccccc4Oc4ccccc4)[nH]c(C)c3c(=O)[nH]2)C1 [Example 50]; 7.95
COC(=O)c1cc2c(-c3cc(N)ccc3Oc3ccccc3)[nH]c(C)c2c(=O)[nH]1 [Example 2]; 7.67
Cc1[nH]c(-c2ccccc2Oc2ccccc2)c2cc(C(=O)Nc3ccncc3)[nH]c(=O)c12 [Example 28]; 7.77

(I) Cc1[nH]c(-c2ccccc2Oc2ccccc2)c2cc(C(=O)NC[C@H]3CCNC3)[nH]c(=O)c12 [Example 58]
(II) CCOC(=O)c1cc2c(-c3cc(Cl)ccc3Oc3ccc(F)cc3F)[nH]c(C)c2c(=O)[nH]1 [Example 24]
(III) Cc1[nH]c(-c2ccccc2Oc2ccccc2)c2cc(-c3nc(C4CC4)no3)[nH]c(=O)c12 [Example 63]
(IV) Cc1[nH]c(-c2cc(NS(C)(=O)=O)ccc2Oc2ccccc2)c2cn[nH]c(=O)c12 [Example 73]
(V) Cc1[nH]c(-c2ccccc2Oc2ccc(F)cc2F)c2cc(C(N)=O)[nH]c(=O)c12 [Example 23]
**Q:** # desc sort on pKi across 5 compounds Please list each label once, in the requested order.
**A:** IV, I, V, III, II
(IV: 8.07, I: 7.80, V: 7.35, III: 6.59, II: 5.56)

(A) COC(=O)c1cc2c(-c3ccccc3Oc3ccccc3)[nH]c(C)c2c(=O)[nH]1 [Example 1]
(B) Cc1[nH]c(-c2cc(F)ccc2OCC2CC2)c2cc(C(N)=O)[nH]c(=O)c12 [Example 70]
**Q:** Record comparison, field pKi: mark the lower of A and B . Refer to your chosen item by its label in the answer.
**A:** B
(B: 6.45, A: 7.61)
